- Test system: Green Peach Aphid (Myzus persicae, MYZUPE)
- test.details: Bioassay on Green Peach Aphid (GPA), foliar spray on infested cabbage seedlings
- Format: in vivo
- conditions.used: 72 h, 200 ppm foliar spray, three days, Abbott corrected % control, read-out: GPA % Control (or Mortality) rating
value.type: mortality at 200 ppm

Requested read-out mortality at 200 ppm, target or system Green Peach Aphid (Myzus persicae, MYZUPE), entry C[C@H](C[S+](C)[O-])NC(=O)c1ccc(/C(F)=C/C(c2cc(Cl)c(Cl)c(Cl)c2)C(F)(F)F)cc1C(F)(F)F (stereo partly drawn) [F88]
80 to 100%

// fetch Green Peach Aphid (Myzus persicae, MYZUPE) mortality at 200 ppm for C[C@H](C[S+]([O-])CC(F)(F)F)NC(=O)c1ccc(/C(F)=C/C(c2cc(Cl)c(Cl)c(Cl)c2)C(F)(F)F)cc1C(F)(F)F (stereo partly drawn) [F3]
0 to 80%

I'm curious: which mortality at 200 ppm was measured for C[C@H](CS(=O)(=O)CC(F)(F)F)NC(=O)c1ccc(/C(F)=C/C(c2cc(Br)c(Cl)c(Br)c2)C(F)(F)F)cc1C(F)(F)F (stereo partly drawn) [F22] tested on Green Peach Aphid (Myzus persicae, MYZUPE)?
0 to 80%

Fill in the recorded mortality at 200 ppm for this compound, with Green Peach Aphid (Myzus persicae, MYZUPE) as test system: C[C@H](CS(=O)(=O)CC(F)(F)F)NC(=O)c1ccc(/C(F)=C/C(c2cc(Cl)c(C(F)F)c(Cl)c2)C(F)(F)F)cc1C(F)(F)F (stereo partly drawn) [F104]
0%

Request - read-out mortality at 200 ppm | tested on Green Peach Aphid (Myzus persicae, MYZUPE) | compound C[C@H](CS(=O)(=O)CC(F)(F)F)NC(=O)c1ccc(/C(F)=C/C(c2ccc(F)c(Cl)c2)C(F)(F)F)cc1C(F)(F)F (stereo partly drawn) [PF2]
0 to 80%

Form: Entry = C[C@H](CSCC(F)(F)F)NC(=O)c1ccc(/C(F)=C/C(c2cc(Br)c(Cl)c(Br)c2)C(F)(F)F)cc1C(F)(F)F (stereo partly drawn) [F21] | System = Green Peach Aphid (Myzus persicae, MYZUPE) | mortality at 200 ppm = ____
80 to 100%

All values here come from patent US10681908B2.
